Biological target: ATP-citrate synthase (Rattus norvegicus)
Assay: Inhibitory activity against rat ATP-citrate lyase activity by the […] dehydrogenase catalyzed reduction of oxaloacetate by NADH.
Listing of entries alongside the reported pKi.
Here pKi is given on a logarithmic scale as minus log10 of the concentration in mol/L.

compound="O=C(O)CC(O)(CSCCCC/C=C/c1ccc(Cl)cc1Cl)C(=O)O (stereo not given)" recorded_result=4.48
compound="O=C(O)CC(O)(CSCCCCCCc1ccc(Cl)cc1)C(=O)O (stereo not given)" recorded_result=4.15

Ask: What pKi value was documented for this compound, O=C(O)CC(O)(CSCCCCCCCCCc1ccc(Cl)cc1Cl)C(=O)O (stereo not given) ?
Result: 3.52

Ask: Also O=C(O)CC(O)(CSCCCCCCc1ccccc1-c1ccccc1)C(=O)O (stereo not given) ?
Result: 4.74

====

Biological target: ATP-citrate synthase (Rattus norvegicus, UniProt P16638)
Sequence (P16638 whole entry): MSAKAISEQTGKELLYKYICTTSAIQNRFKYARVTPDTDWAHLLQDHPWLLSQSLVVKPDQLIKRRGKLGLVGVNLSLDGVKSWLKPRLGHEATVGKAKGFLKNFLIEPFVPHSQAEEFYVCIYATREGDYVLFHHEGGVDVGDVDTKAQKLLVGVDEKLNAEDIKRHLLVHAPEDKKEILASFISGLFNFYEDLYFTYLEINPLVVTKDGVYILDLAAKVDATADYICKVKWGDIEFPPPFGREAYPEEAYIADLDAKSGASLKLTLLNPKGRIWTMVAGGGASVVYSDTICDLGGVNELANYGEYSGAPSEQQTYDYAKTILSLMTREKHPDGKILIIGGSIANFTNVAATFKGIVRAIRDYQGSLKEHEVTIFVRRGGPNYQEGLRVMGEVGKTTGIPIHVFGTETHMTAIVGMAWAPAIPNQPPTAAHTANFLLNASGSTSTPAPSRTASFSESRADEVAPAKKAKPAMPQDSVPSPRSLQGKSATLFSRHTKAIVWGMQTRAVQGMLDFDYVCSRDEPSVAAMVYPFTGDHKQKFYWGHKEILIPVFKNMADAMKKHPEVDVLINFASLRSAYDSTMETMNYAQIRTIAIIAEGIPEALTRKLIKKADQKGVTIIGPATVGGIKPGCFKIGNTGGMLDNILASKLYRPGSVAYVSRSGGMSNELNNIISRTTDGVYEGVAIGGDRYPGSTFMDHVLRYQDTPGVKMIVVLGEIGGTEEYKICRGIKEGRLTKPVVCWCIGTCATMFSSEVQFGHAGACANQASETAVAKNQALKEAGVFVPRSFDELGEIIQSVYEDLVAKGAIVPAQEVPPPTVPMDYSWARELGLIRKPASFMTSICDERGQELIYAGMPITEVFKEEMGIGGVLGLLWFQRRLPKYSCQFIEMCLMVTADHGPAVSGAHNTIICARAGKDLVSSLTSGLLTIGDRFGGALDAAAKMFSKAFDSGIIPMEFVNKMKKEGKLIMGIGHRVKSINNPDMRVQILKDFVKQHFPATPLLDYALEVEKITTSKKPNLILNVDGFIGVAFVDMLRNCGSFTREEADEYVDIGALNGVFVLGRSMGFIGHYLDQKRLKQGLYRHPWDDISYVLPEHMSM
Assay: Inhibitory activity against rat ATP-citrate lyase activity by the […] dehydrogenase catalyzed reduction of oxaloacetate by NADH.
reported_metric: Ki (µM)
Write the answer as a number in µM, unit excluded.

compound="O=C(O)CC(O)(CSCCCCCNc1ccc(Cl)cc1Cl)C(=O)O (stereo unspecified)" target="ATP-citrate synthase (Rattus norvegicus, UniProt P16638)" reported_metric=Ki reading_unit=µM recorded_result=12
compound="O=C(O)CC(O)(CSCc1ccc(Cl)cc1Cl)C(=O)O (stereo unspecified)" target="ATP-citrate synthase (Rattus norvegicus, UniProt P16638)" reported_metric=Ki reading_unit=µM recorded_result=410
compound="O=C(O)CC(O)(CSCCCCCc1ccc(-c2ccccc2)cc1)C(=O)O (stereo unspecified)" target="ATP-citrate synthase (Rattus norvegicus, UniProt P16638)" reported_metric=Ki reading_unit=µM recorded_result=226
compound="O=C(O)CC(O)(CSCCCCCS(=O)(=O)c1ccc(Cl)cc1Cl)C(=O)O (stereo unspecified)" target="ATP-citrate synthase (Rattus norvegicus, UniProt P16638)" reported_metric=Ki reading_unit=µM recorded_result=64
compound="O=C(O)CC(CSCCCCC[S+]([O-])c1ccc(Cl)cc1Cl)C(=O)O (stereo unspecified)" target="ATP-citrate synthase (Rattus norvegicus, UniProt P16638)" reported_metric=Ki reading_unit=µM recorded_result=131

Ask: Give the measured Ki of O=C(O)CC(O)(CSCCCCCCc1cccc(Cl)c1Cl)C(=O)O (stereo unspecified) .
Result: 7.3

Ask: Query O=C(O)CC(O)(CSCCCCCCCc1ccc(Cl)cc1Cl)C(=O)O (stereo unspecified) next
Result: 7.2

Ask: And the next one, O=C(O)CC(O)(CSCCCCCCc1ccc(Cl)c(Cl)c1)C(=O)O (stereo unspecified) ?
Result: 110

Ask: // query: O=C(O)CC(O)(CSCCCCCCc1cccc(Cl)c1)C(=O)O (stereo unspecified)
Result: 150

Ask: What about this compound? O=C(O)CC(O)(CCCCCCCCc1ccc(Cl)cc1Cl)C(=O)O (stereo unspecified)
Result: 2.9

Ask: Record: O=C(O)CC(O)(CC(=O)CCCCCc1ccc(Cl)cc1Cl)C(=O)O (stereo unspecified)
Result: 25

====

In this section we review reported log10 of Ki values for a set of compounds.
Molecular target: ATP-citrate synthase (Rattus norvegicus, UniProt P16638)
Assay: Inhibitory activity against rat ATP-citrate lyase activity by the […] dehydrogenase catalyzed reduction of oxaloacetate by NADH.
Base-10 log of Ki, unit µM.

Ask: Find log10 of Ki (ATP-citrate synthase (Rattus norvegicus, UniProt P16638)) for the entry O=C(O)CC(O)(CSCCCCNS(=O)(=O)c1ccc(Cl)cc1Cl)C(=O)O (stereo unspecified)
Result: 2.24

Ask: What do we get for O=C(O)CCCSCCCCCCc1ccc(Cl)cc1Cl ?
Result: 1.40

====

Target: ATP-citrate synthase (Rattus norvegicus, UniProt P16638)
Assay: Inhibitory activity against rat ATP-citrate lyase activity by the […] dehydrogenase catalyzed reduction of oxaloacetate by NADH.
Overview of reported log10 Ki across a group of compounds:
Remember, log10 of Ki, in µM.

Record excerpt, results attached:
compound="O=C(O)CC(O)(CCSCCCCCc1ccc(Cl)cc1Cl)C(=O)O (centres undefined)" target="ATP-citrate synthase (Rattus norvegicus, UniProt P16638)" reported_metric="log10 Ki" recorded_result=0.46
compound="O=C(O)CC(O)(CSCCCCCCc1ccc(-c2ccccc2)cc1)C(=O)O (centres undefined)" target="ATP-citrate synthase (Rattus norvegicus, UniProt P16638)" reported_metric="log10 Ki" recorded_result=1.58
compound="O=C(O)CC(O)(CCCCCCCc1ccc(Cl)cc1Cl)C(=O)O (centres undefined)" target="ATP-citrate synthase (Rattus norvegicus, UniProt P16638)" reported_metric="log10 Ki" recorded_result=1.02
compound="O=C(O)CC(O)(CSCCCCCC(=O)c1ccc(Cl)cc1Cl)C(=O)O (centres undefined)" target="ATP-citrate synthase (Rattus norvegicus, UniProt P16638)" reported_metric="log10 Ki" recorded_result=2.11
compound="O=C(O)CC(O)(CC(=O)CCCCCCc1ccc(Cl)cc1Cl)C(=O)O (centres undefined)" target="ATP-citrate synthase (Rattus norvegicus, UniProt P16638)" reported_metric="log10 Ki" recorded_result=0.08

Ask: Query: log10 Ki; subject: O=C(O)CC(O)(CSCCCCCCc1ccc(F)cc1)C(=O)O (centres undefined)
Result: 2.08

Ask: What about this compound? O=C(O)CC(O)(CSCCCCCCc1c(Cl)cccc1Cl)C(=O)O (centres undefined)
Result: 1.88

Ask: What do you get for O=C(O)CC(CSCCCCCCc1ccc(Cl)cc1Cl)C(=O)O (centres undefined) ?
Result: 0.41

Ask: What would you report for O=C(O)CC(O)(CSCCCCCSc1ccc(Cl)cc1Cl)C(=O)O (centres undefined) ?
Result: 1.00

These data points were gathered from ChEMBL document CHEMBL1129688.
